The following are reported pKi results, target or system human MCH-1 receptor (Homo sapiens (Human), UniProt Q99705).
Structures can show the parent of a compound that is named as a salt.
Value format note: pKi is -log10 of concentration (mol/L); just state the number.

Some solved cases for reference:
[
  {
    "COMPOUND": "CC(C)N1CCc2[nH]c3cc(-n4ccc(OCc5ccccc5)cc4=O)ccc3c2CC1.Cl [Example 17, hydrochloride]",
    "SYSTEM TESTED": "human MCH-1 receptor (Homo sapiens (Human), UniProt Q99705)",
    "READOUT KIND": "pKi",
    "ENDPOINT RESULT": 8.14
  },
  {
    "COMPOUND": "Cl.O=c1cc(OCc2ccccc2)ccn1-c1ccc2c3c([nH]c2c1)CCNCC3 [Example 7, hydrochloride]",
    "SYSTEM TESTED": "human MCH-1 receptor (Homo sapiens (Human), UniProt Q99705)",
    "READOUT KIND": "pKi",
    "ENDPOINT RESULT": 8.22
  },
  {
    "COMPOUND": "Cn1c2c(c3ccc(-n4ccc(-c5ccc(C(F)(F)F)nc5)nc4=O)cc31)CCNCC2 [Example 58, hydrochloride]",
    "SYSTEM TESTED": "human MCH-1 receptor (Homo sapiens (Human), UniProt Q99705)",
    "READOUT KIND": "pKi",
    "ENDPOINT RESULT": 6.79
  },
  {
    "COMPOUND": "Cn1c2c(c3ccc(-n4ccc(OCc5ccc(Cl)cc5F)cc4=O)nc31)CCNCC2 [Example 84, hydrochloride]",
    "SYSTEM TESTED": "human MCH-1 receptor (Homo sapiens (Human), UniProt Q99705)",
    "READOUT KIND": "pKi",
    "ENDPOINT RESULT": 7.96
  },
  {
    "COMPOUND": "Cc1ccc(-c2ccn(-c3ccc4c5c(n(C)c4c3)CCCNC5)c(=O)c2)cn1.Cl [Example 33, hydrochloride]",
    "SYSTEM TESTED": "human MCH-1 receptor (Homo sapiens (Human), UniProt Q99705)",
    "READOUT KIND": "pKi",
    "ENDPOINT RESULT": 7.76
  }
]

pKi on human MCH-1 receptor (Homo sapiens (Human), UniProt Q99705) for Cn1c2c(c3ccc(-n4ccc(-c5ccc(C(F)(F)F)nc5)nc4=O)cc31)CNCCC2 [Example 108, hydrochloride] is 7.22

Log: human MCH-1 receptor (Homo sapiens (Human), UniProt Q99705), compound Cn1c2c(c3ccc(N4CCN(CCc5ccc(Cl)cc5)CC4=O)cc31)CCNCC2 [Example 53, dihydrochloride] , pKi = 7.89

Field pKi (system: human MCH-1 receptor (Homo sapiens (Human), UniProt Q99705)) for entry Cl.Cn1c2c(c3ccc(-n4ccc(OCc5ccccc5)cc4=O)cc31)CCCNC2 [Example 18, hydrochloride] = 7.93

# value of pKi, human MCH-1 receptor (Homo sapiens (Human), UniProt Q99705), item CN1CCc2c(n(C)c3cc(-n4ccc(OCc5ccccc5)cc4=O)ccc23)CC1 [Example 44, hydrochloride] = 7.94

pKi of Cl.Cn1c2c(c3ccc(-n4ccc(-c5ccc(C(F)(F)F)cc5)cc4=O)cc31)CCNCC2 [Example 41, hydrochloride] , assay on human MCH-1 receptor (Homo sapiens (Human), UniProt Q99705), is 8.00

* * *

Counter-ions that a name gives are not always drawn.
Listed here: compounds with reported pKi for UniProt:Q99705.
Note on pKi: it is the negative log10 of concentration, concentration in mol/L.

[
  {
    "COMPOUND": "CN1CCc2c(n(C)c3nc(-n4ccc(OCc5ccccc5)cc4=O)ccc23)CC1 [Example 88, hydrochloride]",
    "ENDPOINT RESULT": 8.06
  }
]

UniProt:Q99705 pKi of Cn1c2c(c3ccc(-n4ncc(OCc5ccc(F)cn5)cc4=O)cc31)CNCCC2 [Example 39, hydrochloride] is 7.77

pKi for UniProt:Q99705 with input Cl.Cn1c2c(c3ccc(-n4ccc(-c5ccc(C(F)(F)F)cn5)cc4=O)cc31)CNCCC2 [Example 23, hydrochloride] equals 8.33

* * *

Molecular target: human MCH-1 receptor (Homo sapiens (Human), UniProt Q99705)
Sequence (Q99705 whole entry): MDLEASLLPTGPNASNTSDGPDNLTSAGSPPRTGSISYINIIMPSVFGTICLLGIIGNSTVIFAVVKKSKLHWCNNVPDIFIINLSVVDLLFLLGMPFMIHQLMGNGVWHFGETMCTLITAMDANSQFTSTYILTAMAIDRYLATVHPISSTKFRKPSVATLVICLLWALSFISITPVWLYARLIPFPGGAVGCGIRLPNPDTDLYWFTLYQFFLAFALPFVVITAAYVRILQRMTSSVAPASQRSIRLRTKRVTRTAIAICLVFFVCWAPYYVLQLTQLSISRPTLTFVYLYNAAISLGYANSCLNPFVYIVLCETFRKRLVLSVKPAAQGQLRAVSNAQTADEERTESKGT
Structures can show the parent of a compound that is named as a salt.
READOUT KIND: Ki (nM)
Quick reminder: number only, in nM, skip the unit.

[
  {
    "COMPOUND": "Cl.Cn1c2c(c3ccc(-n4ccc(OCc5ccc(Cl)cn5)cc4=O)cc31)CNCCC2 [Example 63, hydrochloride]",
    "Ki [nM]": 5
  },
  {
    "COMPOUND": "O=c1cc(OCc2ccccc2)ccn1-c1ccc2c3c([nH]c2c1)CCCNC3 [Example 35, hydrochloride]",
    "Ki [nM]": 5.8
  },
  {
    "COMPOUND": "Cn1c2c(c3ccc(-n4ccc(OCc5ccc(Cl)cc5F)cc4=O)nc31)CNCCC2 [Example 96, hydrochloride]",
    "Ki [nM]": 9.2
  },
  {
    "COMPOUND": "Cl.O=c1cc(-c2ccc(C(F)(F)F)nn2)ccn1-c1ccc2c3c([nH]c2c1)CCCNC3 [Example 37, hydrochloride]",
    "Ki [nM]": 29.2
  },
  {
    "COMPOUND": "CN1CCCc2c(c3ccc(-n4ccc(OCc5ccc(C(F)(F)F)nc5)cc4=O)cc3n2C)C1 [Example 71, hydrochloride]",
    "Ki [nM]": 8.5
  }
]

We next turn to a different compound, shown below.
Cn1c2c(c3ccc(-n4ccc(OCc5ccc(Cl)cc5)cc4=O)cc31)CCNCC2 [Example 100, hydrochloride] has a reported Ki of 10

* * *

Where a name gives a salt, the structure may show the parent alone.
So I've got pKi readings for human MCH-1 receptor (Homo sapiens (Human), UniProt Q99705), take a look.
Quick note: pKi means taking -log10 of the concentration in moles per liter.

[
  {
    "COMPOUND": "Cl.Cn1c2c(c3ccc(-n4ncc(OCc5ccc(F)cn5)cc4=O)nc31)CCNCC2 [Example 82, hydrochloride]",
    "READOUT KIND": "pKi",
    "ENDPOINT RESULT": 7.28
  },
  {
    "COMPOUND": "Cn1c2c(c3ccc(-n4ccc(OCc5ccc(F)cc5)cc4=O)cc31)CNCCC2 [Example 103, hydrochloride]",
    "READOUT KIND": "pKi",
    "ENDPOINT RESULT": 8.22
  },
  {
    "COMPOUND": "CC(C)N1CCc2c(n(C)c3cc(-n4ccc(OCc5ccccc5)cc4=O)ccc23)CC1.Cl [Example 15, hydrochloride]",
    "READOUT KIND": "pKi",
    "ENDPOINT RESULT": 7.98
  },
  {
    "COMPOUND": "Cn1c2c(c3ccc(-n4ccc(-c5cnc(C(F)(F)F)nc5)cc4=O)cc31)CNCCC2 [Example 25, hydrochloride]",
    "READOUT KIND": "pKi",
    "ENDPOINT RESULT": 7.37
  },
  {
    "COMPOUND": "CN1CCCc2c(c3ccc(-n4ccc(-c5ccc(C(F)(F)F)nn5)cc4=O)cc3n2C)C1 [Example 69, hydrochloride]",
    "READOUT KIND": "pKi",
    "ENDPOINT RESULT": 7.92
  }
]

Result for Cn1c2c(c3ccc(-n4ccc(OCc5ccc(C(F)(F)F)nc5)cc4=O)cc31)CCNCC2 [Example 5, dihydrochloride] , tested on human MCH-1 receptor (Homo sapiens (Human), UniProt Q99705), pKi: 7.93

Reported pKi (human MCH-1 receptor (Homo sapiens (Human), UniProt Q99705)) for entry Cn1c2c(c3ccc(-n4ccc(OCc5ncc(F)cc5F)cc4=O)nc31)CNCCC2 [Example 114, hydrochloride] is 7.36

Observed pKi on human MCH-1 receptor (Homo sapiens (Human), UniProt Q99705), entry Cl.Cn1c2c(c3ccc(-n4ccc(-c5ccc(C(F)(F)F)nc5)cc4=O)nc31)CNCCC2 [Example 89, hydrochloride] , equals 7.82

Lab entry: human MCH-1 receptor (Homo sapiens (Human), UniProt Q99705) assay, compound Cl.Cn1c2c(c3ccc(-n4ccc(-c5ccc(C(F)(F)F)cc5)cc4=O)cc31)CNCCC2 [Example 26, hydrochloride] , pKi = 8.21

Record Cn1c2c(c3ccc(-n4ccc(OCc5ccc(Cl)cc5)cc4=O)nc31)CCNCC2 [Example 109, hydrochloride] / human MCH-1 receptor (Homo sapiens (Human), UniProt Q99705), pKi recorded as 8.02

The compound Cn1c2c(c3ccc(-n4ccc(OCc5ncc(F)cc5F)cc4=O)nc31)CCNCC2 [Example 111, hydrochloride] , tested on human MCH-1 receptor (Homo sapiens (Human), UniProt Q99705), showed pKi of 7.15

Summary line: Cl.Cn1c2c(c3ccc(-n4ccc(-c5ccc(C(F)(F)F)cn5)cc4=O)cc31)CCCNC2 [Example 20, hydrochloride] , human MCH-1 receptor (Homo sapiens (Human), UniProt Q99705), reported pKi = 6.62

human MCH-1 receptor (Homo sapiens (Human), UniProt Q99705) assay, compound Cl.Cn1c2c(c3ccc(-n4ccc(-c5ccc(C(F)(F)F)nc5)cc4=O)cc31)CNCCC2 [Example 27, hydrochloride] , recorded pKi = 8.28

Considering Cn1c2c(c3ccc(-n4ccc(OCc5ccc(F)cn5)cc4=O)cc31)CNCCC2 [Example 22, hydrochloride] , its pKi with human MCH-1 receptor (Homo sapiens (Human), UniProt Q99705) was recorded as 7.95
